Tested on: C. krusei ATCC6258
TEST DETAILS: in vitro antifungal activity
Format: cell-based, Candida krusei
PARAMETER: C. krusei MFC

*Q* Entry CCCCCCCCOc1c(OC)cc(NC(C)CCCNC(=O)C(N)CCCN)c2nc(C(C)(C)C)ccc12 (stereo not drawn) : reported C. krusei MFC = ?
*A* >20 µg/mL

====

Tested on: L. donovani promastigotes
TEST DETAILS: in vitro antileishmanial activity, alamarBlue assay
Assay type: cell-based, Leishmania donovani
MEASUREMENT PARAMETERS: Leishmania donovani, 48 h, read-out: L. donovani IC50, promastigotes, 48 h
PARAMETER: IC50 (µg/mL)
Just the number in µg/mL, nothing appended.

*Q* Entry CCCCCCCOc1c(OC)cc(NC(C)CCCN)c2nc(C(C)(C)C)ccc12 (stereo not drawn) [compound 48] : reported IC50 = ?
*A* 5

*Q* Entry CCCCCCCCOc1c(OC)cc(NC(C)CCCN)c2nc(C(C)(C)C)cc(C)c12 (stereo not drawn) [compound 54] : reported IC50 = ?
*A* 9.74

*Q* Entry CCCCCCOc1c(OC)cc(NC(C)CCCNC(=O)C(N)Cc2ccccc2)c2nc(C(C)(C)C)ccc12 (stereo not drawn) [compound 106] : reported IC50 = ?
*A* 9.89
